settings: in toluene, 343.15 K

| Smiles Str | solubility (mole fraction) |
| --- | --- |
| O=P(NC1CCCCC1)(Oc1ccccc1)Oc1ccccc1 | 0.611 |

----------
conditions: in ethanol, 298.15 K

| Smiles Str | solubility (mole fraction) |
| --- | --- |
| O=P(NC1CCCCC1)(Oc1ccccc1)Oc1ccccc1 | 0.049 |

----------
conditions: in acetonitrile, 308.15 K
Observed Property: solubility (mole fraction)

| Smiles Str | Obs Value |
| --- | --- |
| O=P(NC1CCCCC1)(Oc1ccccc1)Oc1ccccc1 | 0.0371 |

----------
settings: in methanol, 323.15 K

| Smiles Str | solubility (mole fraction) |
| --- | --- |
| O=P(NC1CCCCC1)(Oc1ccccc1)Oc1ccccc1 | 0.212 |

----------
conditions: in ethyl acetate, 338.15 K

| Smiles Str | solubility (mole fraction) |
| --- | --- |
| O=P(NC1CCCCC1)(Oc1ccccc1)Oc1ccccc1 | 0.341 |

----------
details: in acetonitrile, 303.15 K

| Smiles Str | solubility (mole fraction) |
| --- | --- |
| O=P(NC1CCCCC1)(Oc1ccccc1)Oc1ccccc1 | 0.0248 |

----------
conditions: in acetonitrile, 323.15 K
Observed Property: solubility (mole fraction)

| Smiles Str | Observed Property | Obs Value |
| --- | --- | --- |
| O=P(NC1CCCCC1)(Oc1ccccc1)Oc1ccccc1 | solubility (mole fraction) | 0.106 |

----------
conditions: in THF, 303.15 K
Observed Property: solubility (mole fraction)

| Smiles Str | Observed Property | Obs Value |
| --- | --- | --- |
| O=P(NC1CCCCC1)(Oc1ccccc1)Oc1ccccc1 | solubility (mole fraction) | 0.229 |

----------
conditions: in dichloromethane, 303.15 K

| Smiles Str | solubility (mole fraction) |
| --- | --- |
| O=P(NC1CCCCC1)(Oc1ccccc1)Oc1ccccc1 | 0.216 |

----------
settings: in acetonitrile, 328.15 K
Observed Property: solubility (mole fraction)

| Smiles Str | Obs Value |
| --- | --- |
| O=P(NC1CCCCC1)(Oc1ccccc1)Oc1ccccc1 | 0.148 |

----------
conditions: in THF, 308.15 K

| Smiles Str | solubility (mole fraction) |
| --- | --- |
| O=P(NC1CCCCC1)(Oc1ccccc1)Oc1ccccc1 | 0.269 |

----------
details: in chloroform, 313.15 K

| Smiles Str | solubility (mole fraction) |
| --- | --- |
| O=P(NC1CCCCC1)(Oc1ccccc1)Oc1ccccc1 | 0.352 |

----------
details: in toluene, 313.15 K
Observed Property: solubility (mole fraction)

| Smiles Str | Obs Value |
| --- | --- |
| O=P(NC1CCCCC1)(Oc1ccccc1)Oc1ccccc1 | 0.154 |

----------
details: in methanol, 308.15 K

| Smiles Str | solubility (mole fraction) |
| --- | --- |
| O=P(NC1CCCCC1)(Oc1ccccc1)Oc1ccccc1 | 0.0955 |

----------
conditions: in ethanol, 328.15 K
Observed Property: solubility (mole fraction)

| Smiles Str | Obs Value |
| --- | --- |
| O=P(NC1CCCCC1)(Oc1ccccc1)Oc1ccccc1 | 0.253 |

----------
details: in THF, 323.15 K

| Smiles Str | solubility (mole fraction) |
| --- | --- |
| O=P(NC1CCCCC1)(Oc1ccccc1)Oc1ccccc1 | 0.419 |
